Origin of values: ChEMBL document CHEMBL3885861

Organism: Rattus norvegicus
Experiment: Open TG-GATES - Regimen: Single
Type: toxicity, organism-based, Sprague-Dawley
Design: regimen Single, gender Male, age 6 weeks
Test conditions: in vivo, po, 1000 mg/kg, 9 h, tissue Plasma, route gavage, dose level High
Each record here notes measured ALP.

{"columns": ["Compound", "ALP"],
 "data": [
  ["CN/C(=N/CCSCc1nc[nH]c1C)NC#N [CIMETIDINE]", "1031 IU/L"],
  ["Cc1nnc2n1-c1ccc(Cl)cc1C(c1ccccc1Cl)=NC2 [TRIAZOLAM]", "1384.4 IU/L"],
  ["O=C(OC[C@H]1O[C@@H](OC(=O)c2cc(O)c(O)c(OC(=O)c3cc(O)c(O)c(O)c3)c2)[C@H](OC(=O)c2cc(O)c(O)c(OC(=O)c3cc(O)c(O)c(O)c3)c2)[C@@H](OC(=O)c2cc(O)c(O)c(OC(=O)c3cc(O)c(O)c(O)c3)c2)[C@@H]1OC(=O)c1cc(O)c(O)c(OC(=O)c2cc(O)c(O)c(O)c2)c1)c1cc(O)c(O)c(OC(=O)c2cc(O)c(O)c(O)c2)c1 [TANNIC ACID]", "772.8 IU/L"],
  ["COC(=O)C1=C(C)NC(C)=C(C(=O)OC)C1c1ccccc1[N+](=O)[O-] [NIFEDIPINE]", "1341 IU/L"],
  ["CNC(=C[N+](=O)[O-])NCCSCc1ccc(CN(C)C)o1 [RANITIDINE]", "955.2 IU/L"]
]}
